Target: UniProtKB Q7ZJM1
Sequence (Q7ZJM1 whole entry): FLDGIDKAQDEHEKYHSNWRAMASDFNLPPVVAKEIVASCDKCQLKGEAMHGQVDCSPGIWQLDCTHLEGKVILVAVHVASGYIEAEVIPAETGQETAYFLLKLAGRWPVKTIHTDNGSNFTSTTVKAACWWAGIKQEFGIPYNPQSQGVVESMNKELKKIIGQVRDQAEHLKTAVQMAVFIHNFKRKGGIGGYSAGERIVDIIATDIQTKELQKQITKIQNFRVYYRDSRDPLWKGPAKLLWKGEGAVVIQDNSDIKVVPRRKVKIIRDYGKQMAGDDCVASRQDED
API: label(entry) gives MET if the entry's IC50 is strictly smaller than 8 µM; on equality or larger values it gives NOT MET.

- O=C(Nc1ccc2c(c1)C(=O)N(O)C(=O)C2)c1cccc([N+](=O)[O-])c1: NOT MET
- O=C1Cc2ccc([N+](=O)[O-])cc2C(=O)N1O: NOT MET
- O=C1Cc2ccc(-c3ccc(C(F)(F)F)cc3)cc2C(=O)N1O: MET
- O=C1Cc2ccc(-c3ccc(O)cc3)cc2C(=O)N1O: MET
- O=C1Cc2ccc(Br)cc2C(=O)N1O: MET
- O=C1Cc2ccc(Cl)cc2C(=O)N1O: MET
